Origin of measurements: patent US10000488B2

Measurement Target: RORγt (Homo sapiens)
Sequence (P51449 1-497 isoform P51449-2, species assumed): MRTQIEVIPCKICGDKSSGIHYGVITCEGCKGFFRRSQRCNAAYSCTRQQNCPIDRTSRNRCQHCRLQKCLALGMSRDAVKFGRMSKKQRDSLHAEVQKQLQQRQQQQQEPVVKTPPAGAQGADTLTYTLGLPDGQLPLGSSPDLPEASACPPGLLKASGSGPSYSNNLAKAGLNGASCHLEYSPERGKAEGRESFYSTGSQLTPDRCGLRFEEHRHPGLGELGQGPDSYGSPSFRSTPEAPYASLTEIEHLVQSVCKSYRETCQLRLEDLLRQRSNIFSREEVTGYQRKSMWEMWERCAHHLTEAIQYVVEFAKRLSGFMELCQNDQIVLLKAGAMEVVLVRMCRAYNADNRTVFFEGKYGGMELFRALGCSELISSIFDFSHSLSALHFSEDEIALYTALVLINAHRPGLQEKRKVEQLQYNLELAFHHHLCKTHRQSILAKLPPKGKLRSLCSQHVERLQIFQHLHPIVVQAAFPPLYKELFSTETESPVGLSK
Experimental Details: RORγt binding test using fluorescent-labeled synthetic ligand (TR-FRET)
Experimental Context: test compound 1 μM; read-out: binding inhibitory rate (%) of fluorescent-labeled synthetic ligand to RORγt at test compound 1 μM
Parameter Measured: inhibition at 1 µM (%)
Provide only the numeric value, understood in %.

Sample answers from the record:
Cc1ccc(F)c(C(=O)N[C@@H]2CCCN(C(=O)Nc3cc4c(=O)n(CC5CC5)c(=O)n(C(C)C)c4cc3F)C2)c1 [Example 283]    102
CC(C)n1c(=O)n(CC2CC2(F)F)c(=O)c2cc(NC(=O)N3CCO[C@@H](C(=O)Nc4ccc(C#N)c(Cl)c4)C3)c(F)cc21 (stereo partly drawn) [Example 331]    102

Qu. Given CC(C(F)F)n1c(=O)n(CC2CC2)c(=O)c2cc(NC(=O)N3CCOC(C(=O)Nc4ccc(C#N)c(Cl)c4)C3)c(F)cc21 (stereo not drawn) [Example 371] , state its recorded inhibition at 1 µM.
Ans. 95

Qu. I would be grateful if you could share the reported inhibition at 1 µM for CC(C)n1c(=O)n(CC2CC2)c(=O)c2cc(NC(=O)N3CCO[C@@H](C(=O)Nc4ccc(C#N)c(Cl)c4)C3)c(F)cc21 [Example 235] .
Ans. 102

Qu. Item CC(C)n1c(=O)n(C[C@@H]2CCCO2)c(=O)c2cc(NC(=O)N3CCO[C@@H](C(=O)Nc4ccc(C#N)c(Cl)c4)C3)c(F)cc21 [Example 357] has what recorded inhibition at 1 µM?
Ans. 101

Qu. Consider the molecule shown here: CC(C)n1c(=O)n(CC2CC2)c(=O)c2cc(NC(=O)N3CCC[C@@H](NC(=O)c4cc(F)ccc4F)C3)c(F)cc21 [Example 287] What is its recorded inhibition at 1 µM?
Ans. 102

====

Measurement Target: RORγt (Homo sapiens)
Experimental Details: RORγt binding test using fluorescent-labeled synthetic ligand (TR-FRET)
Experimental Context: test compound 1 μM; read-out: binding inhibitory rate (%) of fluorescent-labeled synthetic ligand to RORγt at test compound 1 μM
Method: RORγt Binding Test Using Fluorescent-Labeled Synthetic Ligand The binding activity of the test compound to RORγt was measured by a time resolved fluorescence resonance energy transfer (TR-FRET) utilizing histidine-tagged RORγt, fluorescent-labeled synthetic ligand, and terbium-labeled anti-histidine tag antibody (Invitrogen). First, a test compound diluted with an assay buffer (20 mM Tris-HCl (pH 7.5), 100 mM NaCl, 1 mM DTT, 0.1% BSA) was added to a 384 well plate by 3 μL. […]
Parameter Measured: inhibition at 1 µM

Some solved cases for reference:
CC(C)n1c(=O)n(C[C@@H]2CCCO2)c(=O)c2cc(NC(=O)N3CCO[C@@H](C(=O)Nc4cc(Cl)c(C#N)cc4F)C3)c(F)cc21    101%
CC(C)n1c(=O)n(CC2CC2)c(=O)c2cc(NC(=O)N3CCCC(NC(=O)Nc4ccccc4)C3)ccc21 (stereo not drawn)    102%
Cc1ccc(C(=O)N[C@@H]2CCCN(C(=O)Nc3ccc4c(c3)c(=O)n(CC3CC3)c(=O)n4C(C)C)C2)s1    102%
CC(C)n1c(=O)n(CC2CC2)c(=O)c2cc(NC(=O)N3CCC[C@@H](N4Cc5ccc(C#N)cc5C4=O)C3)c(F)cc21    102%
CC(C)n1c(=O)n(CC2CC2)c(=O)c2cc(NC(=O)N3CCO[C@@H](C(=O)Nc4ccc(C#N)c(F)c4)C3)c(F)cc21    102%

--- query ---
Qu. Find inhibition at 1 µM (RORγt (Homo sapiens)) for the entry CC(C)n1c(=O)n(CC2CC2)c(=O)c2cc(NC(=O)N3CCC(F)(F)C(n4cnc5cc(C#N)ccc5c4=O)C3)c(F)cc21 (stereo not drawn)
Ans. 95%
